Target: purified human HDAC6 (Homo sapiens, UniProt Q9UBN7)
Construct: purchased BPS Bioscience 5006
Sequence (Q9UBN7 1-1215): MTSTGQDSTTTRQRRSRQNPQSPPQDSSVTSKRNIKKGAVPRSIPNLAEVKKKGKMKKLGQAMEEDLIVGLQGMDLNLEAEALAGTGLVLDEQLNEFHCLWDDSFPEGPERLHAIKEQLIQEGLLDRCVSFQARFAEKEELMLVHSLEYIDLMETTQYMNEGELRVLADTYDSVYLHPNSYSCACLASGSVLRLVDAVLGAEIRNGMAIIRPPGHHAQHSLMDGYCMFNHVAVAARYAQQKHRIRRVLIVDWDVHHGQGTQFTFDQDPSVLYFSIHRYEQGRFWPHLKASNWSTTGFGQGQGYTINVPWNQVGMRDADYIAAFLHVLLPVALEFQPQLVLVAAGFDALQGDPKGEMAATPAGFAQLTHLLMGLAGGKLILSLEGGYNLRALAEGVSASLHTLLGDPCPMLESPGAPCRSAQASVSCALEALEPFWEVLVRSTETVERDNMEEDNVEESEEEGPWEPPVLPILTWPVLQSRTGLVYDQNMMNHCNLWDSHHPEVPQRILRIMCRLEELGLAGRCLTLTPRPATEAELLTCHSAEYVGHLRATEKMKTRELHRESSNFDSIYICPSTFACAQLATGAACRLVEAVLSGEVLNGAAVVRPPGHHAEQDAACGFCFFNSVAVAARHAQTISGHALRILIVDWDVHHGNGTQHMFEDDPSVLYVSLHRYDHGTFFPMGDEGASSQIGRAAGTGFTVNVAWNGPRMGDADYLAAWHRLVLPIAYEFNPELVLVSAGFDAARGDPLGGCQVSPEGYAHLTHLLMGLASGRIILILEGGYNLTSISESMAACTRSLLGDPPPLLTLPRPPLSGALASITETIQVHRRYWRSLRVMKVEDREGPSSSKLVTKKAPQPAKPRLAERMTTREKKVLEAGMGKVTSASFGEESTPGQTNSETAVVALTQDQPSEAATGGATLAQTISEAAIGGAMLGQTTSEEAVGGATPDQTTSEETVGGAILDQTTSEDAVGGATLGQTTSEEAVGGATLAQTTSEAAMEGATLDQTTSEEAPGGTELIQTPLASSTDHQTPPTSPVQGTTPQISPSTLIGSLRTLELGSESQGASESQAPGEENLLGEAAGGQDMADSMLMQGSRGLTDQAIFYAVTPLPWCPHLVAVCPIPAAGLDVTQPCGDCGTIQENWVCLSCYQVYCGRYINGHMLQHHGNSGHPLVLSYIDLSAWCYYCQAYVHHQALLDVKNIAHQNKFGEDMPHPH
Procedure summary: HDAC6 Enzyme Assay
Format: biochemical
Condition context: test compound at 1.235 μM; substrate Ac-Arg-Gly-Lys(Ac)-AMC, 1 hour at 30° C.; read-out: Percent Inhibition at 1.235 μM
Experimental readout: inhibition at 1.235 µM (%)

CCCCS(=O)(=O)N1CCc2ncc(C(=O)NO)cc2C1 ... 94.5
O=C(NO)c1cnc2c(c1)CN(C(=O)C13CC4CC(CC(C4)C1)C3)CC2 ... 93.8
O=C(NO)c1cnc2c(c1)CN(C(=O)c1ccc(Cl)cc1)CC2 ... 94.5
COc1ccc(C(=O)N2CCc3cc(C(=O)NO)cnc3C2)cc1 ... 91.1
O=C(NO)c1cnc2c(c1)CN(C(=O)c1sc3ccccc3c1Cl)CC2 ... 93.4
Cn1cccc1C(=O)N1CCc2nc(C(=O)NO)ccc2C1 ... 73.9
Cc1nc(C(=O)N2CCc3ncc(C(=O)NO)cc3C2)cs1 ... 87.8
O=C(NO)c1cnc2c(c1)CN(C(=O)c1cc3ccccc3s1)CC2 ... 97.4
CC1(C(=O)N2CCc3cc(C(=O)NO)cnc3C2)CCCCC1 ... 95.2
Cn1cccc1C(=O)N1CCc2cc(C(=O)NO)cnc2C1 ... 92.3
CCCCOc1ccc(S(=O)(=O)N2CCc3nc(C(=O)NO)ccc3C2)cc1 ... 75.8
CC1(C(=O)N2CCc3nc(C(=O)NO)ccc3C2)CCCCC1 ... 79.5

These data points were gathered from patent US8952163B2.
